target: T1, BAFF (Sino biological, 10056-HNCH) (UniProt Q9Y275 134-285, biotinylated in the blocking ELISA (site not stated))
T1 construct: also called BLyS
T1 sequence (Q9Y275 134-285 limits assumed): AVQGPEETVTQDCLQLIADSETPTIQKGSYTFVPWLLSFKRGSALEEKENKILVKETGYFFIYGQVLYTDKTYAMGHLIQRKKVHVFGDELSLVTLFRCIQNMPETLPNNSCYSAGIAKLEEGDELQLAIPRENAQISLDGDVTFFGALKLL
experiment.notes: ELISA, BAFF coated at 1 ug/mL, anti-human IgG-HRP
Hi there, I'd appreciate the recorded pEC50 for every entry that follows.
Scale: negative log10 of molar concentration, which is what pEC50 denotes.

Req: Identify measured pEC50 corresponding to TACI-9-3-Fc (Fc fusion) SLSCREEQGKFYDHLLRDCISCASICGQHPKQCAYFCENKLDKTHTCPPCPAPEAEGAPSVFLFPPKPKDTLMISRTPEVTCVVVDVSHEDPEVKFNWYVDGVEVHNAKTKPREEQYNSTYRVVSVLTVLHQDWLNGKEYKCKVSNKALPSSIEKTISKAKGQPREPQVYTLPPSRDELTKNQVSLTCLVKGFYPSDIAVEWESNGQPENNYKTTPPVLDSDGSFFLYSKLTVDKSRWQQGNVFSCSVMHEALHNHYTQKSLSLSPGK
Resp: 9.58

Req: Identify measured pEC50 corresponding to TACI-9-8-Fc (Fc fusion) SLSCRKEQGKFYDHLLRDCISCASICGQHPKQCAAFCENKLDKTHTCPPCPAPEAEGAPSVFLFPPKPKDTLMISRTPEVTCVVVDVSHEDPEVKFNWYVDGVEVHNAKTKPREEQYNSTYRVVSVLTVLHQDWLNGKEYKCKVSNKALPSSIEKTISKAKGQPREPQVYTLPPSRDELTKNQVSLTCLVKGFYPSDIAVEWESNGQPENNYKTTPPVLDSDGSFFLYSKLTVDKSRWQQGNVFSCSVMHEALHNHYTQKSLSLSPGK
Resp: 9.70
